Tested on: test plant species
Assay: Post-emergent herbicidal activity test (greenhouse, foliar spray, visual growth reduction)
Type: in vivo
Conditions: post-emergence, 336 h, SORVU: grain sorghum (Sorghum vulgare), 140 g ai/ha, 14 days after application, read-out: Visual Growth Reduction (%) 14 Days After Application, SORVU
Recorded endpoint: pest or weed control at 140 g/ha

- Compound: "O=C(O)c1nc(-c2cc3c(cc2Cl)OCO3)c(Cl)cc1Cl [F183]"
  Recorded endpoint: "pest or weed control at 140 g/ha"
  Result: "0 to 29%"
- Compound: "COC(=O)c1nc(-c2ccc(C(F)(F)F)c(C)c2Cl)ccc1Cl [F136]"
  Recorded endpoint: "pest or weed control at 140 g/ha"
  Result: "75 to 84%"
- Compound: "COC(=O)c1nc(-c2ccc(SC(F)(F)F)cc2Cl)c(F)cc1Cl [F135]"
  Recorded endpoint: "pest or weed control at 140 g/ha"
  Result: "95 to 100%"
- Compound: "O=C(O)c1nc(-c2ccc(SC(F)(F)F)cc2)c(Cl)cc1Cl [F89]"
  Recorded endpoint: "pest or weed control at 140 g/ha"
  Result: "0 to 29%"
- Compound: "COC(=O)c1nc(-c2ccc(C=O)cc2Cl)ccc1Cl [F22]"
  Recorded endpoint: "pest or weed control at 140 g/ha"
  Result: "0 to 29%"
- Compound: "COC(=O)c1nc(-c2ccc(C)cc2Cl)ccc1Cl [F60]"
  Recorded endpoint: "pest or weed control at 140 g/ha"
  Result: "0 to 29%"
- Compound: "COC(=O)c1nc(-c2ccc3[nH]ccc3c2)c(F)cc1Cl [F189]"
  Recorded endpoint: "pest or weed control at 140 g/ha"
  Result: "0 to 29%"
- Compound: "COC(=O)c1nc(-c2ccc(C(F)(F)F)c(SC)c2Cl)ccc1Cl [F121]"
  Recorded endpoint: "pest or weed control at 140 g/ha"
  Result: "0 to 29%"
- Compound: "COC(=O)c1nc(-c2ccc3c(c2)C(F)(F)OC(F)(F)O3)c(F)cc1Cl [F204]"
  Recorded endpoint: "pest or weed control at 140 g/ha"
  Result: "0 to 29%"
- Compound: "COc1c(Cl)ccc(-c2cc(Cl)c(Cl)c(C(=O)O)n2)c1F [F75]"
  Recorded endpoint: "pest or weed control at 140 g/ha"
  Result: "0 to 29%"
- Compound: "COC(=O)c1nc(-c2ccc(C(F)(F)F)cc2F)c(Cl)cc1Cl [F102]"
  Recorded endpoint: "pest or weed control at 140 g/ha"
  Result: "60 to 74%"
- Compound: "COC(=O)c1nc(-c2ccc(Cl)c(F)c2Cl)ccc1Cl [F63]"
  Recorded endpoint: "pest or weed control at 140 g/ha"
  Result: "85 to 94%"
- Compound: "COC(=O)c1nc(-c2c(N)cc(C(F)(F)F)cc2Cl)ccc1Cl [F213]"
  Recorded endpoint: "pest or weed control at 140 g/ha"
  Result: "60 to 74%"
- Compound: "COC(=O)c1nc(-c2cc3c(cc2OC)OC(F)(F)O3)c(F)cc1Cl [F333]"
  Recorded endpoint: "pest or weed control at 140 g/ha"
  Result: "85 to 94%"
- Compound: "COC(=O)c1nc(-c2cc3c(cc2OC)OC(F)(F)O3)ccc1Cl [F353]"
  Recorded endpoint: "pest or weed control at 140 g/ha"
  Result: "45 to 59%"
- Compound: "COCC(F)(F)c1ccc(-c2ccc(Cl)c(C(=O)O)n2)c(Cl)c1 [F179]"
  Recorded endpoint: "pest or weed control at 140 g/ha"
  Result: "0 to 29%"
- Compound: "C=Cc1cc(-c2nc(C(=O)OC)c(Cl)cc2F)c(OC)c2c1OC(F)(F)O2 [F372]"
  Recorded endpoint: "pest or weed control at 140 g/ha"
  Result: "30 to 44%"
- Compound: "COC(=O)c1nc(-c2c(Cl)cc(C(F)(F)F)cc2I)ccc1Cl [F214]"
  Recorded endpoint: "pest or weed control at 140 g/ha"
  Result: "85 to 94%"
- Compound: "COC(=O)c1nc(-c2ccc(Cl)nc2Cl)ccc1Cl [F284]"
  Recorded endpoint: "pest or weed control at 140 g/ha"
  Result: "85 to 94%"
- Compound: "COC(=O)c1nc(-c2ncc(Cl)c(C(F)F)c2Cl)ccc1Cl [F184]"
  Recorded endpoint: "pest or weed control at 140 g/ha"
  Result: "95 to 100%"
- Compound: "O=C(O)c1nc(-c2ccc(C(F)(F)F)cc2Cl)ccc1Cl [F61]"
  Recorded endpoint: "pest or weed control at 140 g/ha"
  Result: "85 to 94%"
